Value source: the supplement of paper PMC3334620

Target: Cin5 (UniProt P40917)
Sequence: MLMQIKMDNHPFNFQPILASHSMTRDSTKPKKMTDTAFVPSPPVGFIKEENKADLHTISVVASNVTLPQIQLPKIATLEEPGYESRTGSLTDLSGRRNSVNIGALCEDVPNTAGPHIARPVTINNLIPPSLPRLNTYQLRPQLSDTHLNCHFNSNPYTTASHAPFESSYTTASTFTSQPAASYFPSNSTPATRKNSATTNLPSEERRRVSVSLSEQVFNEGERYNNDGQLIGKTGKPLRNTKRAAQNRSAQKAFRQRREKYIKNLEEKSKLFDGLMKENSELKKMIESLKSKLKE
Experiment: PBM E-score (8-mer binding enrichment) (E-score (-0.5 to 0.5)); higher = stronger / more preferred TF binding
Settings: protein concentration: 100 nM; construct: GST-full length
Over roughly 33,000 sequences, “E-score (-0.5 to 0.5)” has its median near -0.0059; the highest 2% begin near 0.26. The sample as a whole holds a higher share of the highest values than the screen did.
Ranges used to classify PBM E-score: bottom bin (below 0.06), middle bin (0.06 to below 0.2), top bin (0.2 or more)

Record excerpt, results attached:
Problem: Each sequence maps to one class by PBM E-score. Which class for ATTGAATA ?
Result: top bin

Problem: Another: ATAGATAC
Result: top bin

Problem: Entry to check: ACGGCAAT
Result: top bin

Problem: Now consider TGATTAAA and answer again.
Result: middle bin

Problem: Likewise for TAAGATTA ?
Result: top bin

# ---- query sequence ----
Problem: Assign a category based on measured PBM E-score for AACTCCCT and give only the class name.
Result: bottom bin

----------
Entries and their PBM E-score values follow.
Molecular target: Cin5 (UniProt P40917)
Sequence: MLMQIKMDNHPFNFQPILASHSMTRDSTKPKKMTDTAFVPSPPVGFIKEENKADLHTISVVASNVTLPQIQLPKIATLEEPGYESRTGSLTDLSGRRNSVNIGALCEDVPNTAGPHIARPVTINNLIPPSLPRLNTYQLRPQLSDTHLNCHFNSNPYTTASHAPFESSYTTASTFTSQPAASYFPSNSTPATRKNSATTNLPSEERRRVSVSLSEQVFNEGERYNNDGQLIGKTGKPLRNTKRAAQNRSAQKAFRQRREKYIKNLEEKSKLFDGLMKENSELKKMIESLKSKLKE
Test: PBM E-score (8-mer binding enrichment) (E-score (-0.5 to 0.5)); higher = stronger / more preferred TF binding
Details: protein concentration: 100 nM; construct: GST-full length
In all, about 33,000 sequences were measured (“E-score (-0.5 to 0.5)”: median about -0.0059, highest 2% from about 0.26 on). Many of the other results were omitted from the sample, so the highest values are more common in it than they were.
Hey, just send me the number, nothing else.

Problem: I have this sequence here, CGAGTTCA , and I need its recorded PBM E-score.
Result: -0.0225

Problem: Check ATTGATTG too.
Result: 0.186

Problem: Queued: CTATAACA
Result: -0.122

---
Problem: Would you mind telling me what PBM E-score value was observed for AATTTACG ?
Result: 0.234

Problem: Quick one: AGGCCACG
Result: -0.155

Problem: Also, ATGCATCA please.
Result: 0.287

Problem: Also AAGATATA , if possible.
Result: 0.152

Problem: Same thing, different sequence: CTATTACC
Result: -0.0809
